Measurement Target: Amyloid-beta precursor protein (Homo sapiens)
Test Description: Inhibition of amyloid beta (1 to 42) (unknown origin) assessed as reduction in peptide aggregation at 10 uM measured after 24 hrs by thioflavin-T fluorescence assay relative to control
Square brackets hold non-standard residues; d marks the D form. Peptide text beside a SMILES is read from it. ξ: configuration not given here. Phe(4-tBu) = CC(C)(C)c1ccc(C[C@H](N)C(=O)O)cc1; Oic(3aξ,7aξ) = O=C(O)[C@@H]1CC2CCCCC2N1; Phe(4-NH2) = Nc1ccc(C[C@H](N)C(=O)O)cc1; NMeI = CC[C@H](C)[C@H](NC)C(=O)O; β3hP = O=C(O)C[C@@H]1CCCN1
Record 1 (yes) whenever inhibition is at 50% or higher; record 0 (no) when lower.

{"columns": ["Compound", "Qualitative Label"],
 "data": [
  ["CC(C)[C@H](N)C(=O)N[C@H](C(=O)N1C2CCCCC2C[C@H]1C(=O)N[C@@H](C)C(=O)O)C(C)C (some centres not stated) (H-VV[Oic(3aξ,7aξ)]A-OH)", "0 (no)"],
  ["CC[C@H](C)[C@@H](C(=O)N[C@@H](C)C(=O)O)N(C)C(=O)[C@@H](NC(=O)[C@@H](N)C(C)C)C(C)C (H-VV[NMeI]A-OH)", "1 (yes)"],
  ["CC[C@H](C)[C@H](NC(=O)[C@@H](NC(=O)[C@@H](N)Cc1ccc(N)cc1)C(C)C)C(=O)N[C@@H](C)C(=O)O (H-[Phe(4-NH2)]VIA-OH)", "1 (yes)"],
  ["CC[C@H](C)[C@H](NC(=O)[C@@H](NC(=O)[C@@H](N)C(C)C)C(C)C)C(=O)N[C@@H](CCC(=O)O)C(=O)O (H-VVIE-OH)", "1 (yes)"]
]}

Task: Item CC[C@H](C)[C@H](NC(=O)[C@@H](NC(=O)[C@@H](N)Cc1ccc(C(C)(C)C)cc1)C(C)C)C(=O)N[C@@H](C)C(=O)O (H-[Phe(4-tBu)]VIA-OH) with inhibition of 50% or above?
Result: 0 (no)

Task: And the next one, CC[C@H](C)[C@H](NC(=O)[C@@H](NC(=O)[C@@H](N)C(C)C)C(C)C)C(=O)N[C@@H](CCC(N)=O)C(=O)O (H-VVIQ-OH) ?
Result: 0 (no)

Task: Repeat for the following compound: CC[C@H](C)[C@H](NC(=O)C[C@@H]1CCCN1C(=O)[C@@H](N)C(C)C)C(=O)N[C@@H](C)C(=O)O (H-V[β3hP]IA-OH)
Result: 1 (yes)
